Condition Details: buffer; pH 7.4; 200.0 µM
solubility kinetic vs 20 µg/mL: at or above is TRUE, below is FALSE.

Does the reported solubility kinetic for `O=C1NC(=O)N(Cc2ccccc2)C1=O` fall at or above the 20 µg/mL mark?
TRUE

Does the reported solubility kinetic for `Fc1cnc(Cl)nc1N1CCN(c2ccccc2)CC1` fall at or above the 20 µg/mL mark?
FALSE

Does the reported solubility kinetic for COC(OC)C(C)NC(=O)NC(=O)c1ccccc1Cl (configuration not stated) fall at or above the 20 µg/mL mark?
TRUE

Does the reported solubility kinetic for `Cc1cc(-c2cccc(Br)c2)c(C#N)c(N)n1` fall at or above the 20 µg/mL mark?
FALSE

Does the reported solubility kinetic for `Cn1ccnc1COc1ccc(/C=N/O)cc1` fall at or above the 20 µg/mL mark?
TRUE

Does the reported solubility kinetic for Cc1ccc(CCN2CC(C(=O)NC(C)C)CC2=O)cc1 (configuration not stated) fall at or above the 20 µg/mL mark?
TRUE

Does the reported solubility kinetic for `COCC(=O)Nc1cc(C)cn(Cc2ccc(F)cc2)c1=O` fall at or above the 20 µg/mL mark?
TRUE

====

Condition Details: buffer; pH 7.4; 200.0 µM
solubility kinetic vs 10 µg/mL: at or above is y, below is n.

Does the reported solubility kinetic for `O=C(Nc1ccccc1N1CCCCC1)c1cccc(Cl)c1` fall at or above the 10 µg/mL mark?
n

Does the reported solubility kinetic for `COc1ccc(S(=O)(=O)n2cnc(C)c2)cc1` fall at or above the 10 µg/mL mark?
y

====

Condition Details: buffer; pH 7.4; 200.0 µM
For each of the compounds below, state its solubility kinetic.
One number for each entry, in µg/mL.

// returns reported solubility kinetic for input `O=C(CCCN1C(=O)c2cccnc2C1=O)Nc1ccccc1F`
46.4

// returns reported solubility kinetic for input `CCOC(=O)N1CCC(N2CCN(c3ccccc3)CC2)CC1.Cl`
51.1

// returns reported solubility kinetic for input `O=C(NC1CCCCCC1)C(=O)NC1CC1`
19.8

// returns reported solubility kinetic for input `COC(=O)Cn1cc(/C=C/[N+](=O)[O-])c2ccccc21`
30.6

// returns reported solubility kinetic for input CCOc1cc(C2NC(=O)c3ccccc3O2)ccc1OC(C)C (stereo not given)
14.1

Provide the reported solubility kinetic of each entry below, same order.
1. CC(NC(=O)CNC(=O)c1cccc(Cl)c1)c1ccccc1 (stereo not given)
2. CCOc1ccc(C(NC(=O)CC)c2c(O)ccc3ccccc23)cc1 (stereo not given)
3. CC(=O)N/C(N)=N/c1nc2cc(C)ccc2o1

1. 43.7
2. 2
3. 3.3

Provide the reported solubility kinetic of each entry below, same order.
1. COC(=O)c1cc(C(=O)NC(C)(C)CC(C)(C)C)cc([N+](=O)[O-])c1
2. COc1ccc(/C=C/C(=O)NCCc2nc3ccccc3[nH]2)cc1
3. O=C(Nc1ccc(F)cc1)N1CCCN(c2ccc(C(F)(F)F)cn2)CC1
4. CCOC(=O)c1ccc(NC(=O)c2nc(SC)ncc2Cl)cc1
5. CNC(=O)CCN(Cc1ccco1)S(=O)(=O)c1ccc(OC)c(OC)c1

1: 17.8; 2: 9.9; 3: 2.2; 4: 1; 5: 56.2

====

Condition Details: buffer; pH 7.4; 200.0 µM
Outcome Measure: solubility kinetic (µg/mL)
Numbers only, in µg/mL.

// returns reported solubility kinetic for input CC1CCCCC12NC(=O)N(CC(=O)OCc1c(F)cccc1Cl)C2=O (stereo unspecified)
53.3

Provide the reported solubility kinetic of each entry below, same order.
1. O=C(NC(=S)Nc1ccc2oc(=O)ccc2c1)c1ccco1
2. COc1ccc2[nH]cc(CCNC(=O)CCC3CCCCC3)c2c1

2.8
29.9

Ref: PubChem BioAssay AID1996
